- Method notes: Counterscreen MT4-LTR-Luc
- Type: cell-based
- Condition parameters: human
Test readout: CC50

## Input Quick one: CC50 of COC(=O)N[C@@H](CC(C)C)C(=O)N1CCC[C@H]1c1ncc(-c2ccc3cc(-c4ccc5nc([C@@H]6CCCN6C(=O)[C@H](CC(C)C)NC(=O)OC)[nH]c5c4)ccc3c2)[nH]1 ?
## Output > 0.984 µM

## Input I would be grateful if you could share the reported CC50 for COC(=O)N[C@H](C(=O)N1CCC[C@H]1c1nc2ccc(-c3ccc4cc(-c5cnc([C@@H]6CCCN6C(=O)[C@@H](NC(=O)OC)[C@@H](C)OC)[nH]5)ccc4c3)cc2[nH]1)C(C)C .
## Output > 0.984 µM

## Input For the molecule COC(=O)N[C@H](C(=O)N1CCC[C@H]1c1ncc(-c2ccc3cc(-c4ccc5nc([C@@H]6CCCN6C(=O)[C@@H](NC(=O)OC)C6CCCC6)[nH]c5c4)ccc3c2)[nH]1)C1CCCC1 , what CC50 is on record?
## Output > 0.984 µM

* * *

- Test system: HCV genotype 1b replicon NS5A L31M
- Method notes: Transient HCV 1b replicon, NS5A mutant L31M
- Format: cell-based
- Condition parameters: Hepatitis C virus, read-out: EC50 L31M
Test readout: EC50 (nM)
Kindly answer with a numeric value in nM, unit omitted.

## Input Field request: EC50 | item: CC[C@H](C)[C@H](NC(=O)OC)C(=O)N1CCC[C@H]1c1nc2cc(-c3ccc4cc(-c5cnc([C@@H]6CCCN6C(=O)[C@@H](NC(=O)OC)[C@@H](C)OC)[nH]5)ccc4c3)ccc2[nH]1 [Compound 18]
## Output 0.054

## Input GET /values?readout=EC50&item= CC[C@H](C)[C@H](NC(=O)OC)C(=O)N1CCC[C@H]1c1ncc(-c2ccc3cc(-c4ccc5nc([C@@H]6CCCN6C(=O)[C@@H](NC(=O)OC)[C@@H](C)CC)[nH]c5c4)ccc3c2)[nH]1 [Compound 8]
## Output 0.258

## Input For the molecule shown here, CC[C@H](C)[C@H](NC(=O)OC)C(=O)N1CCC[C@H]1c1nc2ccc(-c3ccc4cc(-c5cnc([C@@H]6CCCN6C(=O)[C@@H](NC(=O)OC)C(C)C)[nH]5)ccc4c3)cc2[nH]1 [Compound 13] , give the reported EC50.
## Output 0.053

## Input Entry under review: COC(=O)N[C@H](C(=O)N1CCC[C@H]1c1nc2ccc(-c3ccc4cc(-c5cnc([C@@H]6CCCN6C(=O)[C@@H](NC(=O)OC)[C@@H](C)OC)[nH]5)ccc4c3)cc2[nH]1)C(C)C [Compound 11] . Reported EC50?
## Output 0.087

## Input # query: EC50 of entry COC(=O)N[C@H](C(=O)N1CCC[C@H]1c1ncc(-c2ccc3cc(-c4ccc5nc([C@@H]6CCCN6C(=O)[C@@H](NC(=O)OC)[C@@H](C)OC)[nH]c5c4)ccc3c2)[nH]1)[C@@H](C)OC [Compound 4]
## Output 0.052

## Input Please look up its EC50: CC[C@H](C)[C@H](NC(=O)OC)C(=O)N1CCC[C@H]1c1ncc(-c2ccc3cc(-c4ccc5[nH]c([C@@H]6CCCN6C(=O)[C@@H](NC(=O)OC)C(C)C)nc5c4)ccc3c2)[nH]1 [Compound 16]
## Output 0.093

* * *

- System: HCV genotype 1b replicon NS5A L31F
- Method notes: Transient HCV 1b replicon, NS5A mutant L31F
- Assay type: cell-based
- Condition parameters: Hepatitis C virus, read-out: EC50 L31F
Test readout: EC50 (pM)
Value expressed in pM; do not type the unit.

## Input For the compound shown here, CC[C@H](C)[C@H](NC(=O)OC)C(=O)N1CCC[C@H]1c1ncc(-c2ccc3cc(-c4ccc5[nH]c([C@@H]6CCCN6C(=O)[C@@H](NC(=O)OC)[C@@H](C)OC)nc5c4)ccc3c2)[nH]1 , give the reported EC50.
## Output 5

## Input Requested field: EC50. Item: COC(=O)N[C@H](C(=O)N1CCC[C@H]1c1ncc(-c2ccc(-c3ccc4nc([C@@H]5CCCN5C(=O)[C@@H](NC(=O)OC)C(C)C)[nH]c4c3)cc2)[nH]1)C(C)C
## Output 775

## Input Requested read-out: EC50. Entry: CC[C@H](C)[C@H](NC(=O)OC)C(=O)N1CCC[C@H]1c1ncc(-c2ccc3cc(-c4ccc5nc([C@@H]6CCCN6C(=O)[C@@H](NC(=O)OC)[C@@H](C)CC)[nH]c5c4)ccc3c2)[nH]1
## Output 16

* * *

Assign EC50 to each entry below.
- Test system: HCV genotype 1b replicon NS5A Y93H
- Method notes: Transient HCV 1b replicon, NS5A mutant Y93H
- Format: cell-based
- Condition parameters: Hepatitis C virus, read-out: EC50 Y93H
Reply numerically in nM, unit not repeated.

## Input Query: EC50; subject: COC(=O)NC(C(=O)N1CCC[C@H]1c1ncc(-c2ccc3cc(-c4ccc5nc([C@@H]6CCCN6C(=O)C(NC(=O)OC)C6CCOCC6)[nH]c5c4)ccc3c2)[nH]1)C1CCOCC1 (mixture of isomers)
## Output 0.275

## Input Looking for the measured EC50 of COC(=O)N[C@H](C(=O)N1CCC[C@H]1c1ncc(-c2ccc3cc(-c4ccc5nc([C@@H]6CCCN6C(=O)[C@@H](NC(=O)OC)C(C)C)[nH]c5c4)ccc3c2)[nH]1)C(C)C , can you help?
## Output 0.47

## Input Could you tell me which EC50 is on file for COC(=O)N[C@H](C(=O)N1CCC[C@H]1c1ncc(-c2ccc3cc(-c4ccc5nc([C@@H]6CCCN6C(=O)[C@@H](NC(=O)OC)[C@@H](C)OC)[nH]c5c4)ccc3c2)[nH]1)[C@@H](C)OC ?
## Output 0.034

* * *

- Tested on: HCV genotype 1b replicon NS5A Y93H
- Method notes: Transient HCV 1b replicon, NS5A mutant Y93H
- Assay type: cell-based
- Condition parameters: Hepatitis C virus, read-out: EC50 Y93H
Field: EC50. Provide a value for each of the compounds that follow.
Answer format: numeric, nM implied, no suffix.

## Input Item COC(=O)NC(C(=O)N1CCC[C@H]1c1ncc(-c2ccc3cc(-c4ccc5nc([C@@H]6CCCN6C(=O)C(NC(=O)OC)c6ccccc6)[nH]c5c4)ccc3c2)[nH]1)c1ccccc1 (mixture of isomers) has what recorded EC50?
## Output 0.093

## Input What does the data say about its EC50? Entry: CC[C@H](C)[C@H](NC(=O)OC)C(=O)N1CCC[C@H]1c1ncc(-c2ccc3cc(-c4ccc5nc([C@@H]6CCCN6C(=O)[C@@H](NC(=O)OC)[C@@H](C)CC)[nH]c5c4)ccc3c2)[nH]1
## Output 0.587

## Input I have this compound here, CC[C@H](C)[C@H](NC(=O)OC)C(=O)N1CCC[C@H]1c1nc2cc(-c3ccc4cc(-c5cnc([C@@H]6CCCN6C(=O)[C@@H](NC(=O)OC)[C@@H](C)OC)[nH]5)ccc4c3)ccc2[nH]1 , and I need its recorded EC50.
## Output 0.08

* * *

- Method notes: Pharmacokinetic analysis after single oral administration, liver concentration
- Format: in vivo
- Condition parameters: male Sprague-Dawley rats, 10 mg/kg oral, solution in PEG400
- Experimental: Compounds were dosed orally as a solution in PEG400 to male Sprague-Dawley rats at a dose level of 10 mg/kg. At serial time points, after dosing, the animals were sacrificed and liver samples collected. All samples were analyzed using a qualified research LC-MS/MS method to determine the concentration of the tested compounds in liver. Non-compartmental analysis using the lin/log trapezoidal rule was performed using WinNonlin™ Professional (Version 5.2.1).
Please use class 1 for Liver AUC under 8000 ng·h/g and class 0 for everything else, ties included.

## Input API: query returns whether the compound falls strictly under 8000 ng·h/g in Liver AUC. Query: CC[C@H](C)[C@H](NC(=O)OC)C(=O)N1CCC[C@H]1c1nc2ccc(-c3ccc4cc(-c5cnc([C@@H]6CCCN6C(=O)[C@@H](NC(=O)OC)C(C)C)[nH]5)ccc4c3)cc2[nH]1
## Output class 0

## Input State whether 8000 ng·h/g exceeds Liver AUC recorded for COC(=O)N[C@H](C(=O)N1CCC[C@H]1c1ncc(-c2ccc3cc(-c4ccc5nc([C@@H]6CCCN6C(=O)[C@@H](NC(=O)OC)C(C)C)[nH]c5c4)ccc3c2)[nH]1)C(C)C .
## Output class 0

## Input Does this compound meet the criterion Liver AUC < 8000 ng·h/g? COC(=O)N[C@H](C(=O)N1CCC[C@H]1c1ncc(-c2ccc3cc(-c4ccc5nc([C@@H]6CCCN6C(=O)[C@@H](NC(=O)OC)[C@@H](C)OC)[nH]c5c4)ccc3c2)[nH]1)C(C)C
## Output class 1

## Input State whether 8000 ng·h/g exceeds Liver AUC recorded for CC[C@H](C)[C@H](NC(=O)OC)C(=O)N1CCC[C@H]1c1ncc(-c2ccc3cc(-c4ccc5nc([C@@H]6CCCN6C(=O)[C@@H](NC(=O)OC)[C@@H](C)CC)[nH]c5c4)ccc3c2)[nH]1 .
## Output class 0
